These data points were gathered from BindingDB's records for doi:10.1021/jm00057a007.

protocol_summary: Inhibition of guinea pig acetylcholinesterase
measured_endpoint: IC50 (nM)
Report the figure in nM without appending any unit label.

compound | result_unit | IC50
N#CC(C#N)C1=NCCN1CCNCc1ccc(CN2CCSCC2)o1 | nM | 1500
N#CC(C#N)C1=NCCN1CCNCc1ccc(CN2CCOCC2)o1 | nM | 11000
CN=C(NCCNCc1ccc(CN(C(C)C)C(C)C)o1)C(C#N)C#N | nM | 2100
CNc1c(NCCNCc2ccc(CN3CCCCC3)o2)c(=O)c1=O | nM | 9300
N#CC(C#N)C1=NCCN1CCNCc1ccc(CN2CCCCC2)o1 | nM | 30

stdin: Specify IC50 for CCN(CC)Cc1ccc(CNCCN2CCN=C2C(C#N)C#N)o1 and stop.
stdout: 600

stdin: Specify IC50 for N#CC(C#N)C1=NCCN1CCNCc1ccc(CN2CCCCCC2)o1 and stop.
stdout: 120

stdin: Specify IC50 for CN=C(NCCNCc1ccc(CN2CCCC2)o1)C(C#N)C#N and stop.
stdout: 280

stdin: Specify IC50 for CC1CCN(Cc2ccc(CNCCN3CCN=C3C(C#N)C#N)o2)CC1 and stop.
stdout: 290

stdin: Specify IC50 for N#CC(C#N)C1=NCCN1CCNCc1ccc(CN2CCCC2)o1 and stop.
stdout: 80

stdin: Specify IC50 for CCN(C)Cc1ccc(CNCCN2CCN=C2C(C#N)C#N)o1 and stop.
stdout: 430

stdin: Specify IC50 for COc1cc(N)c(Cl)cc1C(=O)NCCNCc1ccc(CN(C)C)o1 and stop.
stdout: 3100

----------
Known IC50 of a selection of compounds
protocol_summary: Inhibition of guinea pig acetylcholinesterase
Report the figure in nM without appending any unit label.

compound | measured_endpoint | result_unit | data_value
N#CC(C#N)C1=NCCN1CCNCc1ccc(CN2CCC(O)CC2)o1 | IC50 | nM | 390
CC1CCCN(Cc2ccc(CNCCN3CCN=C3C(C#N)C#N)o2)C1 (centres undefined) | IC50 | nM | 370
CN(C)Cc1ccc(CNCCN2CCN=C2C(C#N)C#N)o1 | IC50 | nM | 390

Now consider a different compound.
stdin: Specify IC50 for N#CC(C#N)C1=NCCN1CCNCc1ccc(CN2CCCC(O)C2)o1 (centres undefined) and stop.
stdout: 370

----------
Known IC50 of a selection of compounds
protocol_summary: Inhibition of guinea pig acetylcholinesterase
Report the figure in nM without appending any unit label.

compound | IC50 (nM)
CN=C(NCCNCc1ccc(CN(C)C)o1)C(C#N)C#N | 630
CN=C(NCCNCc1ccc(CN2CCCCC2)o1)C(C#N)C#N | 830
COC1CCCN(Cc2ccc(CNCCN3CCN=C3C(C#N)C#N)o2)C1 (stereo not given) | 3300
CC1CCCCN1Cc1ccc(CNCCN2CCN=C2C(C#N)C#N)o1 (stereo not given) | 540
N#CC(C#N)c1nc2ccccc2n1CCNCc1ccc(CN2CCCCC2)o1 | 73
O=c1[nH]c2ccccc2n1CCNCc1ccc(CN2CCCCC2)o1 | 1200

stdin: Specify IC50 for N#CC(C#N)C1=NCCN1CCNCc1ccc(CN2CC=CCC2)o1 and stop.
stdout: 95

----------
Known pIC50 of a selection of compounds
protocol_summary: Inhibition of guinea pig acetylcholinesterase
pIC50: −log10 of the molar value.

Illustrative cases are given below, each with its answer.
smi | pIC50
CN=C(NCCNCc1ccc(COC)o1)C(C#N)C#N | < 4.70
CN(C)Cc1ccc(CNCCN2CCN=C2C[N+](=O)[O-])o1 | < 5.70

Now consider a different compound.
stdin: Specify pIC50 for CCN(CC)CCNC(=O)c1cc(Cl)c(N)cc1OC and stop.
stdout: < 4.70
